tested on: rice (Oryza sativa); experiment: Test B flooded paddy test plant response; type: in vivo; settings: Flood (flooded paddy test), 125 g ai/ha; scale 0 to 100, 0 no effect, 100 complete control
Below, each entry is listed with its recorded Plant response rating, Rice.
Simply state the number, no unit and no words.

Can you look up the measured Plant response rating, Rice of Cc1cc(-c2ccc(Cl)cc2)nn1-c1c(OC(=O)C(C)C)cnn(C)c1=O [Compound 34] for me?
70

What about Cc1cc(-c2ccc(C(F)(F)F)cc2)nn1-c1c(OC(=O)C(C)(C)C)cnn(C)c1=O [Compound 2] ?
15

Try this molecule too: CCc1cc(-c2ccc(C(F)(F)F)cc2)nn1-c1c(OS(C)(=O)=O)cnn(C)c1=O [Compound 19]
60

And then Cc1cc(-c2ccc(Cl)cc2)nn1-c1c(OC(=S)N(C)C)cnn(C)c1=O [Compound 69] , what is it?
0

Record: COc1ccc(-c2cc(C)n(-c3c(O)cnn(C)c3=O)n2)cc1 [Compound 62]
0
